Parameter: Herbicidal Efficacy CC = Redroot Pigweed. Scope: all listed entries.
# Test system: redroot pigweed
# PROTOCOL_TEXT: Upland post-emergence treatment test, redroot pigweed; note: ranges in brackets are in %
# Assay type: in vivo, redroot pigweed (Amaranthus retroflexus)
# STUDY_CONDITIONS: post-emergence spray at 3-4 leaf stage, 80 g/ha, 30th day after treatment, greenhouse

Look over these answered cases.
Cc1ccc(C(=O)Oc2c(C(=O)c3ccc4c(c3C)C(C)(C)CS4(=O)=O)cnn2C)cc1
5 (0)
Cc1c(C(=O)c2cnn(C)c2OS(=O)(=O)c2ccc(Cl)cc2)ccc2c1C(C)(C)CS2(=O)=O
5 (0)
CCCS(=O)(=O)Oc1c(C(=O)c2cc(C)c3c(c2C)C(C)(C)CS3(=O)=O)cnn1CC [Compound (A), reference compound]
0 (81-100)
CCC(=O)Oc1c(C(=O)c2ccc3c(c2C)C(C)(C)CS3(=O)=O)cnn1C
5 (0)
Cc1c(C(=O)c2cnn(C)c2OS(=O)(=O)c2ccccc2)ccc2c1C(C)(C)CS2(=O)=O
5 (0)
CCCCCCCCS(=O)(=O)Oc1c(C(=O)c2ccc3c(c2C)C(C)(C)CS3(=O)=O)cnn1C
5 (0)

Query string: Need Herbicidal Efficacy CC = Redroot Pigweed, item "CCS(=O)(=O)Oc1c(C(=O)c2ccc3c(c2C)C(C)(C)CS3(=O)=O)cnn1C"
Result string: 5 (0)
